The measurements presented in this section are drawn from patent US20130195872A1.

Biological target: T1, cynomolgus IL-17A homodimer (cynomolgus, UniProt A0A2K5TTB0 20-155)
T1 sequence: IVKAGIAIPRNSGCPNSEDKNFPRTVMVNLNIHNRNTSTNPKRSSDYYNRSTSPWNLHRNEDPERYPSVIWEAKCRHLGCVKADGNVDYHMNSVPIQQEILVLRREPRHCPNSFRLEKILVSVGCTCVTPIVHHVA
Experiment: cell-based or functional assay
Lab note: anything with IC50, IL-6 secretion by MEF cells, cytokine at 5 ng/ml below 0.01 µM is marked Met; values at 0.01 µM or higher are marked Not met.

binder: 12B12 antibody (antibody, IgG4, V domains shown) VH: QVQLVQSGAEVKKPGSSVKVSCKASGGTLSSYAFSWVRQAPGQGLEWMGGIIPFFGTVNYAQKFQGRVTITADESTNTAYMELSSLRSEDTAVYYCARDRDYYGLGSPLHYYGLDVWGQGTTVTVSS VL: EIVLTQSPDFQSVTPKEKVTITCRASQSIGSSLHWYQQKPDQSPKLLIKYASQSFSGVPSRFSGSGSGTDFTLTINSLEAEDAAAYYCHQSSSLPWTFGQGTKVEIK
label value: Not met

binder: 30D12 antibody (antibody, IgG1, V domains shown, Fully human monoclonal antibody; also called 30D12 IgG1) VH: QVQLVQSGAEVKKPGASVKVSCKASGYTFTSYDINWVRQATGQGLEWMGWMNPDSGVIRYAQKFQGRVTMTRNTSISTAYMELNSLRSEDTAVYYCAREWFGELPSYYFYSGMDVWGQGTTVTVSS VL: EIVLTQSPATLSLSPGERATLSCRASQSVSSYLAWYQQKPGQAPRLLIYDASNRATGIPARFSGSGSGTDFTLTISSLEPEDFAVYYCQQRSNWPPTFGPGTKVDIK
label value: Met

binder: 30D12BF antibody (antibody, V domains shown) VH: QVQLVQSGAEVKKPGASVKVSCKASGYTFTSYDINWVRQATGQGLEWMGWLNPDSGVIRYAQKFQGRVTMTRDTSISTAYMELSSLRSEDTAVYYCAREWFGELPSYYFYSGMDVWGQGTTVTVSS VL: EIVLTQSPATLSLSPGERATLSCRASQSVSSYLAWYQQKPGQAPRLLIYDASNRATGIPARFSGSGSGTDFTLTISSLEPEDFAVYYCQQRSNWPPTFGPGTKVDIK
label value: Met

binder: 15B7 antibody (antibody, IgG4, V domains shown) VH: QVQLVQSGAEVKKPGSSVKVSCKASGGTLSSYAFSWVRQAPGQGLEWMGGIIPFFGTAHYAQKFQGRVTITADESTNTAYMELSSLRSEDTAVYYCARDRDYYGSGSPFHFSGLDVWGQGTTVTVSS VL: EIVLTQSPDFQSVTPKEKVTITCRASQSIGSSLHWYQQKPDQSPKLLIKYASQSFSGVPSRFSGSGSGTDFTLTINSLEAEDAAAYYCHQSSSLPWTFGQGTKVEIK
label value: Not met

Now, please, on to the next binder.
Prompt: Please check: IC50, IL-6 secretion by MEF cells, cytokine at 5 ng/ml for 31A3 antibody (antibody, IgG1, V domains shown) VH: QVQLVQSGAEVKKPGASVKVSCKASVYTFTTYGISWVRQAPGQGLEWMGWITVYNGNTNYAQKFHGRVTMTTDTSTSTAYMELRSLRSDDTAVYYCASFHGGHSGYHYGLDVWGQGTTVTVSS VL: EIVLTQSPATLSLSPGERATLSCRASQSVSSYLAWYQQKPGQAPRLLIYDASNRATGIPARFSGSGSGTDFTLTISSLEPEDFAVYYCQQRSNWPPYTFGQGTKLEIK , strictly under 0.01 µM or not?
Response: Not met
